pIC50: −log10 of the molar value.
Aurora kinase A (Homo sapiens) pIC50, compiled from various sources.
Result type: pIC50

> print(dat)
                                    molecule        result
 1  O=C1Nc2ccccc2C1=Cc1ccc2c(-c3cccnc3)n[nH]c2c1 (mixture of isomers)        > 5.30
 2  COc1c(Nc2ncc(Cl)c(Nc3cccc4c3C(=O)NC4)n2)ccc(N2C[C@H]3CN(C)C[C@H]3C2)c1F  6.00 to 7.00
 3  CC1(C)C(=O)N(CC(O)CN2CCOCC2)c2cc3[nH]c(-c4n[nH]c5ccccc45)nc3cc21 (stereo not shown)  7.00 to 9.00
 4  O=C1NCc2cccc(Nc3nc(Nc4ccc(N5C[C@H]6C[C@@H]5CN6)cc4OC(F)F)ncc3Cl)c21  6.00 to 7.00
 5  CC(C)(C)N1CCN(C2CCN(c3ccc(Nc4ncc(C(F)(F)F)c(Nc5cccc6c5C(=O)NC6)n4)c(OC(F)F)c3)CC2)CC1  6.00 to 7.00
 6  Cn1cc(-c2n[nH]c3cc(-c4ccc(NC(=O)Nc5ccccc5OC(F)(F)F)cc4)ccc23)cn1        < 4.90
 7  Fc1c(O[C@H]2CC[C@](Cc3cccc(Nc4cc[nH]n4)n3)(c3n[nH]c(=S)o3)CC2)cccc1C(F)(F)F          9.64
 8  Cc1c(-c2ccnc(Nc3ccc(CC(=O)N(C)C)cc3)n2)c(C)n2c1C(=O)NCC2        > 6.00
 9  COc1ccc(-c2cnc3[nH]c(=O)n(Cc4ccccc4)c3n2)cc1CO        < 6.00
10  Cc1cc(Nc2nn(-c3ccccc3Cl)c(=O)c3ccccc23)n[nH]1  7.00 to 9.00
11  CO[C@@H](C(=O)N1Cc2[nH]nc(NC(=O)c3ccc(N4CCN(C)C(C)C4)cc3)c2C1)c1ccccc1 (stereo partly shown)          7.74
12  CC1(C)C(=O)N(CC(=O)Nc2ccccc2)c2cc3[nH]c(-c4n[nH]c5ccccc45)nc3cc21  7.00 to 9.00
13  Cc1cc(Nc2nn(C(C)C)c(=O)c3ccc(N(C)C)cc23)n[nH]1  6.00 to 7.00
14  O=[N+]([O-])c1cccc(Nc2nccc(-c3cccc(CO)c3)n2)c1          6.80
15  CN1CCN(C2CCN(c3ccc(Nc4ncc(Cl)c(Nc5cccc6c5C(=O)NC6)n4)c(OC(F)F)c3)CC2)CC1  6.00 to 7.00
16            Fc1ccc(Nc2nccc(-c3nccs3)n2)cc1        < 5.70
17  Cc1c(-c2ccnc(Nc3cccc(CCC(=O)N(C)CCCN(C)C)c3)n2)c(C)n2c1C(=O)NCC2        > 6.00
18       COc1ccc(-c2ccnc(Nc3ccc(O)cc3)n2)cc1          6.40
19  COC(=O)C(CC(=O)NCc1cn(CCCCc2ccccn2)c2ccc(Oc3ccc(O)cc3)cc12)NC(C)=O (stereo not shown)          4.43
20  CC(C)N1CCN(C2CCN(c3ccc(Nc4ncc(Cl)c(Nc5cccc6c5C(=O)NC6)n4)c(OC(F)F)c3)CC2)CC1  6.00 to 7.00
21  CCN(CC)CCNS(=O)(=O)c1ccc(Nc2nccc(-c3c(C)c4n(c3C)CCNC4=O)n2)cc1C        > 5.00
22  O=C(O)CCc1c(/C=C2\C(=O)Nc3ccc(F)cc32)[nH]c2c1C(=O)CCC2          6.75
23  Cc1c(-c2ccnc(Nc3ccc(-n4cccc4)cc3)n2)c(C)n2c1C(=O)NCC2        > 6.00
24  O=C(O)CCc1c(/C=C2\C(=O)Nc3ccc(S(=O)(=O)Cc4ccc(F)cc4)cc32)[nH]c2c1C(=O)CCC2          6.35
25  CCOC(=O)CCc1c(/C=C2\C(=O)Nc3ccccc32)[nH]c2c1C(=O)CCC2          5.75
26  COc1cc2c(Oc3ccc(CC(=O)Nc4cccc(F)c4)cc3)ccnc2cc1OCC[C@H](N)C(=O)O  5.30 to 5.70
27  COc1ccc(Cn2nc(Nc3cc(C)[nH]n3)c3ccccc3c2=O)cc1  7.00 to 9.00
28  CN(C)C(=O)c1cc(CN2C[C@@H]3C[C@H]2CN3C(=O)c2cccc(C(F)(F)F)c2C#N)nc(Nc2nccs2)c1          8.96
29  O=C1Nc2ccccc2C1=Cc1ccc2c(/C=C/c3cnccn3)n[nH]c2c1 (mixture of isomers)        > 5.30
30  O=C(/C=C/c1ccccc1)Nc1ccccc1Nc1nc(Nc2ccc3c(c2)CC(=O)N3)ncc1Cl          8.22
31   CN(C)Cc1cccc(-c2ccnc(Nc3cccc(O)c3)n2)c1          5.82
